Source of measurements: PubChem BioAssay AID1919006

- Test system: 885512-296-R-J2-PDC complex spheroid growth, % test/control;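 also: spheroids exposed to compounds for seven days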
- assay.protocol: Anticancer human tumor 885512-296-R-J2-PDC patient-derived breast carcinoma cell line growth inhibition [AhR]; active = viability on the fitted dose curve at most 10% of control; inactive = the rest
- assay.setup: second compound 10 µM; first compound 0.316 µM
The categories you may choose from are class 1 (active), class 0 (inactive)

Ask: Tell me the recorded outcome of this test for Nc1ccccc1NC(=O)c1ccc(CNC(=O)OCc2cccnc2)cc1 + CC(CO)NC(=O)c1cc(-c2ccc(Cl)cc2)nn(-c2cnn(C)c2)c1=O .
Result: class 0

Ask: Tell me the recorded outcome of this test for COc1cccc2c1C(=O)c1c(O)c3c(c(O)c1C2=O)CC(O)(C(=O)CO)CC3OC1CC(N)C(O)C(C)O1 (stereo not drawn) + CC(CO)NC(=O)c1cc(-c2ccc(Cl)cc2)nn(-c2cnn(C)c2)c1=O .
Result: class 1

Please find the next compound below.
Ask: Tell me the recorded outcome of this test for O=C(C=Cc1cccc(S(=O)(=O)Nc2ccccc2)c1)NO + Cc1cncc(-c2nc(NCCc3c[nH]c4ccccc34)c3ncn(C(C)C)c3n2)c1 .
Result: class 0
